B1: POU domain, class 2, transcription factor 1, residues 285 to 354; numbered along this chain, P14859 (parent)
chain: LEELEQFAKTFKQRRIKLGFTQGDVGLAMGKLYGNDFSQTTISRFEALNLSFKNMCKLKPLLEKWLNDAE

# Variants of: B1
# PROTOCOL: abundance fitness (aPCA) (normalised: wild type 0, dead -1); higher = more abundant; growth selection in yeast, the domain comes from the species named
# MEASUREMENT CONTEXT: Homo sapiens
We use -0.02 as the dividing line for abundance fitness: on or above the line is 1 (yes), below is 0 (no).

Q) Is it the case that F52C has abundance fitness reaching or exceeding -0.02?
A) 0 (no)

Q) Is it the case that E2W has abundance fitness reaching or exceeding -0.02?
A) 0 (no)

Q) Is it the case that R14C has abundance fitness reaching or exceeding -0.02?
A) 0 (no)

Q) Is it the case that G30H has abundance fitness reaching or exceeding -0.02?
A) 0 (no)

Q) Is it the case that K57V has abundance fitness reaching or exceeding -0.02?
A) 0 (no)

Q) Is it the case that L61F has abundance fitness reaching or exceeding -0.02?
A) 1 (yes)

Q) Is it the case that K17W has abundance fitness reaching or exceeding -0.02?
A) 0 (no)

Q) Is it the case that Q22G has abundance fitness reaching or exceeding -0.02?
A) 0 (no)

Q) Is it the case that F45Y has abundance fitness reaching or exceeding -0.02?
A) 0 (no)

Q) Is it the case that N35K has abundance fitness reaching or exceeding -0.02?
A) 1 (yes)

Q) Is it the case that L27N has abundance fitness reaching or exceeding -0.02?
A) 0 (no)

Q) Is it the case that L58C has abundance fitness reaching or exceeding -0.02?
A) 1 (yes)

Q) Is it the case that A28D has abundance fitness reaching or exceeding -0.02?
A) 0 (no)

Q) Is it the case that K53P has abundance fitness reaching or exceeding -0.02?
A) 1 (yes)

Q) Is it the case that M55R has abundance fitness reaching or exceeding -0.02?
A) 0 (no)

Q) Is it the case that E2N has abundance fitness reaching or exceeding -0.02?
A) 1 (yes)

Q) Is it the case that G23N has abundance fitness reaching or exceeding -0.02?
A) 1 (yes)

Q) Is it the case that E5I has abundance fitness reaching or exceeding -0.02?
A) 0 (no)

Q) Is it the case that S43A has abundance fitness reaching or exceeding -0.02?
A) 1 (yes)

Q) Is it the case that Q6G has abundance fitness reaching or exceeding -0.02?
A) 1 (yes)

Q) Is it the case that F37C has abundance fitness reaching or exceeding -0.02?
A) 1 (yes)

Q) Is it the case that N49H has abundance fitness reaching or exceeding -0.02?
A) 0 (no)

Q) Is it the case that C56I has abundance fitness reaching or exceeding -0.02?
A) 1 (yes)

Q) Is it the case that A69W has abundance fitness reaching or exceeding -0.02?
A) 0 (no)

Q) Is it the case that R15Y has abundance fitness reaching or exceeding -0.02?
A) 0 (no)

Q) Is it the case that L1R has abundance fitness reaching or exceeding -0.02?
A) 1 (yes)

Q) Is it the case that R15C has abundance fitness reaching or exceeding -0.02?
A) 0 (no)

Q) Is it the case that F11R has abundance fitness reaching or exceeding -0.02?
A) 0 (no)

Q) Is it the case that M55I has abundance fitness reaching or exceeding -0.02?
A) 0 (no)

Q) Is it the case that T10I has abundance fitness reaching or exceeding -0.02?
A) 1 (yes)

Q) Is it the case that I42P has abundance fitness reaching or exceeding -0.02?
A) 0 (no)

Q) Is it the case that T40Q has abundance fitness reaching or exceeding -0.02?
A) 1 (yes)

Q) Is it the case that G26C has abundance fitness reaching or exceeding -0.02?
A) 0 (no)

Q) Is it the case that A47G has abundance fitness reaching or exceeding -0.02?
A) 1 (yes)

Q) Is it the case that V25A has abundance fitness reaching or exceeding -0.02?
A) 0 (no)

Q) Is it the case that F45Q has abundance fitness reaching or exceeding -0.02?
A) 0 (no)

Q) Is it the case that Q6Y has abundance fitness reaching or exceeding -0.02?
A) 0 (no)

Q) Is it the case that M29H has abundance fitness reaching or exceeding -0.02?
A) 0 (no)

Q) Is it the case that Q13M has abundance fitness reaching or exceeding -0.02?
A) 0 (no)

Q) Is it the case that G23E has abundance fitness reaching or exceeding -0.02?
A) 1 (yes)

Q) Is it the case that R14T has abundance fitness reaching or exceeding -0.02?
A) 0 (no)

Q) Is it the case that W65K has abundance fitness reaching or exceeding -0.02?
A) 0 (no)

Q) Is it the case that P60R has abundance fitness reaching or exceeding -0.02?
A) 0 (no)

Q) Is it the case that Q13E has abundance fitness reaching or exceeding -0.02?
A) 1 (yes)

Q) Is it the case that W65R has abundance fitness reaching or exceeding -0.02?
A) 0 (no)

Q) Is it the case that K12L has abundance fitness reaching or exceeding -0.02?
A) 0 (no)
